Values were extracted from ChEMBL document CHEMBL1154930.

Property: Vd; scope: individual compounds
experiment: Volume of distribution at steady state in Beagle dog at 0.5 mg/kg, iv or 0.5 mg/kg, po; format: ADME, organism-based, Canis lupus familiaris; settings: in vivo, read-out: Vdss

SMILES	Vd (L/kg)
Cc1cc(C#N)cc(C(=O)c2c(C(C)C)c(=O)[nH]c(=O)n2Cc2cc(F)nc(F)c2)c1	1.94
Cc1cc(C#N)cc(C(=O)c2c(C(C)C)c(=O)[nH]c(=O)n2Cc2cc(N)nc(F)c2)c1	1.8
Cc1cc(C#N)cc(C(=O)c2c(C(C)C)c(=O)[nH]c(=O)n2Cc2ccnc(F)c2)c1	1.61
